- system.name: T1, CNTFRα-myc (soluble extracellular domain of the CNTFRα receptor) (UniProt P26992 23-342)
- T1 construct: extracellular domain; Captured on plates or protein A-Sepharose through the anti-myc antibody 9E10; also called CNTF receptor α; soluble CNTFRα receptor
- T1 sequence (looked up): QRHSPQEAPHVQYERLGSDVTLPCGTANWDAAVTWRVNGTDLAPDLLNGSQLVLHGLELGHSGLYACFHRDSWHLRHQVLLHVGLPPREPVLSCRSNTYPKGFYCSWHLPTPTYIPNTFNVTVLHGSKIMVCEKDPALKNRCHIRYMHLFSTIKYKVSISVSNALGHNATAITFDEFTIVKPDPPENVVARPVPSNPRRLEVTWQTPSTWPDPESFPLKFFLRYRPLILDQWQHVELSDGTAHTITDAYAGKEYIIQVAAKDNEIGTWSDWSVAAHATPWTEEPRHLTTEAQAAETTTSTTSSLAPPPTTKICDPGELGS
- protocol.summary: solid-phase competition with biotinylated CNTF or biotinylated MUT-DH for immobilised CNTFRα-myc, soluble gp130 present
measured.metric: Relative Binding ((IC50 of CNTF)/(IC50 of tested protein)) (ratio)
Write it as a number; the unit ratio goes unstated.

What does the data say about its Relative Binding ((IC50 of CNTF)/(IC50 of tested protein))? Entry: MUT-DH (Ser166Asp/Gln167His/CNTF) (ligand, human, UniProt P26441 1-200, looked up, also called DH-CNTF; S166D/Q167H/CNTF) MAFTEHSPLTPHRRDLCSRSIWLARKIRSDLTALTESYVKHQGLNKNINLDSADGMPVASTDQWSELTEAERLQENLQAYRTFHVLLARLLEDQQVHFTPTEGDFHQAIHTLLLQVAAFAYQIEELMILLEYKIPRNEADGMPINVGDGGLFEKKLWGLKVLQELDHWTVRSIHDLRFISSHQTGIPARGSHYIANNKKM 41

The origin of these recorded values is patent US6756357.
